Please go through the items and note down their MIC.
- Test system: Staphylococcus aureus
- Protocol Text: Antibacterial activity against Staphylococcus aureus ATCC 25923 after 3 to 4 days by serial plate dilution method
- Assay type: functional
Value expressed in µg/mL; do not type the unit.

Which MIC is reported for this molecule? CCOC(=O)C1CCN(Cn2nc(C(C)c3ccc(CC(C)C)cc3)oc2=S)CC1 (stereo not given)
12.5

What about CC(C)Cc1ccc(C(C)c2nn(CN3CCN(c4ccc([N+](=O)[O-])cc4)CC3)c(=S)o2)cc1 (stereo not given) ?
12.5

What about O=C(O)c1cn(C2CC2)c2cc(N3CCNCC3)c(F)cc2c1=O ?
1.56

What about CSc1ccc(Cc2nn(CN3CCN(c4cccc(Cl)c4)CC3)c(=S)o2)cc1 ?
12.5

What about CC(C)Cc1ccc(C(C)c2nn(CN3CCN(c4ccc(F)cc4)CC3)c(=S)o2)cc1 (stereo not given) ?
6.25

What about CC(C)Cc1ccc(C(C)c2nn(CN3CCOCC3)c(=S)o2)cc1 (stereo not given) ?
6.25

What about CCOC(=O)C1CCN(Cn2nc(Cc3ccc(SC)cc3)oc2=S)CC1 ?
12.5

What about CC(C)Cc1ccc(C(C)c2nn(CN3CCCCC3)c(=S)o2)cc1 (stereo not given) ?
25

What about CSc1ccc(Cc2nn(CN3CCN(c4ccc(F)cc4)CC3)c(=S)o2)cc1 ?
6.25

What about CC(C)Cc1ccc(C(C)c2nn(CN3CCN(c4ccc(Cl)cc4)CC3)c(=S)o2)cc1 (stereo not given) ?
12.5
